- PROCEDURE_DETAILS: PSAC antagonists in infected red cells, primary screen, cell-based, P. falciparum Indochina, OD700, 2 h (AID 1155);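 note: lysis reports solute entry through the parasite surface anion channel PSAC; channel blockers reduce lysis of infected cells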
- DETAILS: P. falciparum Indochina infected erythrocytes, osmotic lysis OD700; higher = more signal, called active from +8 up or from −8 down
# key: entry, value: z-score
The answer should be written as a number, with no unit following it.

Below are worked cases with known answers.
# COMPOUND, z-score
data = [
    ("CC(=O)OC[C@H]1O[C@H](C#CCCc2ccccc2)C=C[C@@H]1OC(C)=O", 0.317),
    ("C=CC[C@@H]1C=C[C@H](Oc2ccc(C)cc2)[C@@H](COC(=O)NCc2cccc3ccccc23)O1", 0.852),
    ("CCOC(=O)[C@H](CC(C)C)NC(=O)CCC1CC(OC(=O)NCc2ccc3c(c2)OCO3)CC2(CCCC(COC(=O)NCCC(C)C)O2)O1 (some centres not stated)", -0.299),
    ("CCOC(=O)CCN1C(=O)[C@H]2[C@H]3[C@H](O)[C@H](O)CC(=NNC(=O)OCc4ccccc4)[C@H]3CC[C@H]2C1=O", 0.0095),
    ("CO[C@H]1C[C@@H]2C[C@H](O)CC(CC(=O)O[C@@H](C=CCC(C)C)C[C@@H]3CC[C@H](C)[C@@H](C1)O3)O2", 0.41),
]

z-score in this record for CO[C@@H](C1CCCCC1)[C@@H](C)[C@H](OCc1cccc(Br)c1)[C@@H](C)CO : 1.29

Reported z-score of C=CC[C@@H]1C=CC(ON=C(C)C)[C@@H](CO)O1 (some centres not stated) : 0.81

Recorded z-score (compound C=CC[C@@H]1C=C[C@H](ON=C(C)CCN2CCCc3nc(C)c(C)cc32)[C@@H](CO)O1 ): 0.327

Item: COc1ccc(COC(=O)NN=C2C[C@@H](O)[C@@H](O)[C@@H]3[C@@H]4C(=O)N(C(C)(C)C)C(=O)[C@@H]4CC[C@@H]23)cc1 | z-score: -0.039

z-score recorded for this compound, CCc1cc2c(nc1CC)CCN(CCC(C)=NOC(C)CN1CCCCc3nc(C)c(C)cc31)C2 (configuration not stated) , is 0.499

What the record says about CCOC(=O)CCN1C(=O)[C@H]2[C@H]3[C@H](O)[C@H](O)CC(=NNC(=O)OCC)[C@H]3CC[C@H]2C1=O : z-score is 0.635

Looking up CC(=O)OC[C@H]1O[C@H](C#CCC2CCCCC2)C=C[C@@H]1OC(C)=O , I found its z-score recorded as 0.138

---

// values below are reported z-score
- PROCEDURE_DETAILS: modulators of HCV replicon luciferase signal, primary screen, HCV replication inhibitor project, Huh7 cells, luciferase reporter (AID 1109);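 note: huh7 hepatoma cells harbouring a luciferase neomycin HCV replicon reporter; luciferase luminescence as measure of HCV replicon replication; test concentration not given here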
- DETAILS: 48 h, higher = more signal
Form rule: numeric answer, no unit written next to it.

# MOLECULE, z-score
measured = [
    ("O=C1CCCC=C1C(O)COCc1ccccc1 (centres undefined)", -0.45),
    ("CCOC(=O)[C@H](Cc1ccccc1)NC(=O)CCC1CC(OC(=O)NCc2cccc3ccccc23)CC2(CCCC(COC(=O)NCCOc3ccccc3)O2)O1 (some centres undefined)", -0.795),
    ("COc1ccc(O[C@H]2C=C[C@@H](C#Cc3ccccc3)O[C@@H]2CO)cc1", -2.17),
]

Now look at this one.
Note to self: z-score recorded for COc1ccc(COC(=O)NN=C2C[C@@H](O)[C@@H](O)[C@@H]3[C@@H]4C(=O)N(C[C@@H]5CCCO5)C(=O)[C@@H]4CC[C@H]23)cc1 was -0.186
